Taken from ChEMBL document CHEMBL3137667.

settings: human, serum;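 also: human clinical chemistry: moderate when serum ALT or AST reaches 6× upper normal limit or alkaline phosphatase 1.7×, value counts indexed literature references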
Structures can show the parent of a compound that is named as a salt.
Label Y when Hepatotoxicity (moderate) is strictly below 1; otherwise label N.

[
  {
    "compound": "CN(C)CC(Oc1ccccc1)Oc1ccccc1 [MEDIFOXAMINE]",
    "class-assignment": "Y"
  },
  {
    "compound": "CCNc1cccnc1N1CCN(C(=O)c2cc3cc(OC)ccc3[nH]2)CC1 [ATEVIRDINE MESYLATE]",
    "class-assignment": "Y"
  },
  {
    "compound": "Cn1c(=O)c2[nH]cnc2n(C)c1=O.O [THEOPHYLLINE]",
    "class-assignment": "N"
  },
  {
    "compound": "Nc1ccc(S(=O)(=O)c2ccc(N)cc2)cc1 [DAPSONE]",
    "class-assignment": "N"
  },
  {
    "compound": "[AsH3] [ARSENIC]",
    "class-assignment": "N"
  },
  {
    "compound": "O=C1CN(/N=C/c2ccc([N+](=O)[O-])o2)C(=O)N1 [NITROFURANTOIN]",
    "class-assignment": "N"
  },
  {
    "compound": "C[C@]12C=CC(=O)C=C1CC[C@@H]1[C@@H]2[C@@H](O)C[C@@]2(C)[C@H]1CC[C@]2(O)C(=O)CO [PREDNISOLONE]",
    "class-assignment": "Y"
  },
  {
    "compound": "Cc1onc(-c2c(F)cccc2Cl)c1C(=O)N[C@@H]1C(=O)N2[C@@H]1SC(C)(C)[C@@H]2C(=O)O [FLOXACILLIN]",
    "class-assignment": "N"
  },
  {
    "compound": "CO[C@H](C(=O)[C@@H](O)[C@@H](C)O)[C@@H]1Cc2cc3cc(O[C@H]4C[C@@H](O[C@H]5C[C@@H](O)[C@H](O)[C@@H](C)O5)[C@H](O)[C@@H](C)O4)c(C)c(O)c3c(O)c2C(=O)[C@H]1O[C@H]1C[C@@H](O[C@H]2C[C@@H](O[C@H]3C[C@](C)(O)[C@H](O)[C@@H](C)O3)[C@@H](O)[C@@H](C)O2)[C@H](O)[C@@H](C)O1 [PLICAMYCIN]",
    "class-assignment": "N"
  },
  {
    "compound": "CC(C)(O)c1ccccc1CC[C@@H](SCC1(CC(=O)O)CC1)c1cccc(/C=C/c2ccc3ccc(Cl)cc3n2)c1 [MONTELUKAST]",
    "class-assignment": "N"
  },
  {
    "compound": "CN(C)CCC=C1c2ccccc2CCc2ccccc21 [AMITRIPTYLINE]",
    "class-assignment": "N"
  },
  {
    "compound": "Cc1cc(CC(=O)O)n(C)c1C(=O)c1ccc(Cl)cc1 [ZOMEPIRAC]",
    "class-assignment": "N"
  },
  {
    "compound": "O=C(CCNNC(=O)c1ccncc1)NCc1ccccc1 [NIALAMIDE]",
    "class-assignment": "Y"
  },
  {
    "compound": "CCc1c(C)[nH]c2c1C(=O)C(CN1CCOCC1)CC2 (centres undefined) [MOLINDONE]",
    "class-assignment": "N"
  },
  {
    "compound": "COc1cc(NCc2ccc3nc(N)nc(N)c3c2C)cc(OC)c1OC [TRIMETREXATE]",
    "class-assignment": "N"
  },
  {
    "compound": "CCOC(=O)C1=C[C@@H](OC(CC)CC)[C@H](NC(C)=O)[C@@H](N)C1 [OSELTAMIVIR]",
    "class-assignment": "Y"
  },
  {
    "compound": "CCCCOCC(CN1C(=O)NC(=O)C(CC)(c2ccccc2)C1=O)OC(N)=O (centres undefined) [FEBARBAMATE]",
    "class-assignment": "N"
  },
  {
    "compound": "Cc1ccc(S(=O)(=O)NC(=O)NN2CCCCCC2)cc1 [TOLAZAMIDE]",
    "class-assignment": "Y"
  },
  {
    "compound": "CN1CCN(C(=O)OC2c3nccnc3C(=O)N2c2ccc(Cl)cn2)CC1 (centres undefined) [ZOPICLONE]",
    "class-assignment": "Y"
  },
  {
    "compound": "O=C(OC[C@H]1O[C@@H](OC(=O)c2cc(O)c(O)c(OC(=O)c3cc(O)c(O)c(O)c3)c2)[C@H](OC(=O)c2cc(O)c(O)c(OC(=O)c3cc(O)c(O)c(O)c3)c2)[C@@H](OC(=O)c2cc(O)c(O)c(OC(=O)c3cc(O)c(O)c(O)c3)c2)[C@@H]1OC(=O)c1cc(O)c(O)c(OC(=O)c2cc(O)c(O)c(O)c2)c1)c1cc(O)c(O)c(OC(=O)c2cc(O)c(O)c(O)c2)c1 [TANNIC ACID]",
    "class-assignment": "Y"
  },
  {
    "compound": "CCC[C@@H]1C[C@@H](C(=O)N[C@@H]([C@H]2O[C@H](SC)[C@H](O)[C@@H](O)[C@H]2O)[C@@H](C)O)N(C)C1 [LINCOMYCIN]",
    "class-assignment": "N"
  },
  {
    "compound": "CC1COc2c(N3CCN(C)CC3)c(F)cc3c(=O)c(C(=O)O)cn1c23 (centres undefined) [OFLOXACIN]",
    "class-assignment": "N"
  },
  {
    "compound": "CN1CCN(C(c2ccccc2)c2ccccc2)CC1 [CYCLIZINE]",
    "class-assignment": "Y"
  }
]
